System: 786-O
assay overview: Cytotoxicity in vitro in the presence and absence of elastase (MTT assay)
Format: cell-based
condition parameters: 786-O cells; compound alone; 72 h incubation; read-out: IC50 without neutrophil elastase
endpoint name: IC50

Some solved entries appear below for comparison.
{"molecule": "CCCNC(=O)Nc1cccc(S(=O)(=O)Nc2cccc([C@@H](CC(=O)O)NC(=O)Nc3ccc(NC(=O)NCCOCCOCCOCCC(=O)N[C@@H](CC(=O)O)C(=O)N4CCC[C@H]4C(=O)N[C@H](C(=O)OC(C)(C)CCNC(=O)[C@H](Cc4ccccc4)NC(=O)[C@H](C)[C@@H](OC)[C@@H]4CCCN4C(=O)C[C@@H](OC)[C@H]([C@@H](C)CC)N(C)C(=O)[C@@H](NC(=O)[C@H](C(C)C)N(C)C)C(C)C)C(C)C)cc3)c2)c1 [Compound 32]", "IC50": "100 to 999 nM"}
{"molecule": "CC(C)[C@H](NC(=O)[C@@H]1CCCN1C(=O)[C@H](CC(=O)O)NC(=O)CCOCCOCCOCCNC(=O)CCC(=O)Nc1nnc(S(N)(=O)=O)s1)C(=O)N=[S@](C)(=O)Cc1cc2nc(c1)OCCCOc1cc(F)ccc1-c1cc(ncc1F)N2 (relative stereo) [Compound 10]", "IC50": "> 1000 nM"}

Then this molecule:
**Q:** Using the record for CCCNC(=O)Nc1cccc(S(=O)(=O)Nc2cccc([C@@H](CC(=O)O)NC(=O)Nc3ccc(NC(=O)NCCOCCOCCOCCC(=O)N[C@@H](CC(=O)O)C(=O)N4CCC[C@H]4C(=O)N[C@H](C(=O)NCCC(C)(C)C(=O)OCCCNC(=O)[C@H](Cc4ccccc4)NC(=O)[C@H](C)[C@@H](OC)[C@@H]4CCCN4C(=O)C[C@@H](OC)[C@H]([C@@H](C)CC)N(C)C(=O)[C@@H](NC(=O)[C@H](C(C)C)N(C)C)C(C)C)C(C)C)cc3)c2)c1 [Compound 31] , report its IC50.
**A:** 100 to 999 nM

###

Tested on: HT29
assay overview: Cytotoxicity in vitro in the presence and absence of elastase (MTT assay)
Format: cell-based
condition parameters: HT29 cells; with 10 nM elastase (NE); 72 h incubation; read-out: IC50 with neutrophil elastase
endpoint name: IC50

Record excerpt, results attached:
{"compound": "CC(C)[C@H](NC(=O)[C@@H]1CCCN1C(=O)[C@H](CC(=O)O)NC(=O)CCOCCOCCOCCNC(=O)NCCCC[C@H](NC(=O)N[C@@H](CCC(=O)O)C(=O)O)C(=O)O)C(=O)N=S(C)(=O)Cc1cc2nc(c1)OCCCOc1cc(F)ccc1-c1cc(ncc1F)N2 (relative stereo)", "endpoint name": "IC50", "experimental value": "1 to 9.9 nM"}
{"compound": "CC[C@@]1(OC(=O)[C@@H](NC(=O)[C@@H]2CCCN2C(=O)[C@H](CC(=O)O)NC(=O)CCOCCOCCOCCNC(=O)NCCCC[C@H](NC(=O)N[C@@H](CCC(=O)O)C(=O)O)C(=O)O)C(C)C)C(=O)OCc2c1cc1n(c2=O)Cc2c-1nc1cc(F)c(C)c3c1c2[C@@H](N)CC3", "endpoint name": "IC50", "experimental value": "10 to 99 nM"}

We next turn to a different compound, shown below.
**Q:** Any idea what IC50 was measured for CCCNC(=O)Nc1cccc(S(=O)(=O)Nc2cccc([C@@H](CC(=O)O)NC(=O)Nc3ccc(NC(=O)NCCOCCOCCOCCC(=O)N[C@@H](CCC(=O)NCCOCCOCCOCCC(=O)N[C@@H](CC(=O)O)C(=O)N4CCC[C@H]4C(=O)N[C@H](C(=O)O[C@]4(CC)C(=O)OCc5c4cc4n(c5=O)Cc5c-4nc4ccccc4c5CC)C(C)C)C(=O)NCCOCCOCCOCCC(=O)N[C@@H](CC(=O)O)C(=O)N4CCC[C@H]4C(=O)N[C@H](C(=O)O[C@]4(CC)C(=O)OCc5c4cc4n(c5=O)Cc5c-4nc4ccccc4c5CC)C(C)C)cc3)c2)c1 ?
**A:** 1 to 9.9 nM
